- System: 377384-186-R-J1-PDC complex spheroid viability;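 further: spheroids exposed to compounds for seven days before readout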
- Measurement description: Anticancer human tumor 377384-186-R-J1-PDC patient-derived pancreatic carcinoma cell line growth inhibition [RAS]; active means viability on the fitted dose curve at most 10% of control; inactive means the rest
- Settings: second compound 0.1 µM; first compound 0.00949 µM
// one of y = active, n = inactive, no free text

Example entries and their recorded answers appear below.
**Query** Assay outcome for CC1(C)CCC(Nc2ncc(C(F)(F)F)c(-c3c[nH]c4c(P(C)(C)=O)c(C#N)ccc34)n2)CN1 (centres undefined) + C#Cc1c(F)ccc2cc(O)cc(-c3ncc4c(N5CC6CCC(C5)N6)nc(OCC56CCCN5CC(F)C6)nc4c3F)c12 : what was it?
**Result** y

**Query** What do we get for CC1(C)CCC(Nc2ncc(C(F)(F)F)c(-c3c[nH]c4c(P(C)(C)=O)c(C#N)ccc34)n2)CN1 (centres undefined) + C=CC(=O)N1CCN(c2nc(OCC3CCCN3C)nc3c(F)c(-c4nc(N)cc(C)c4C(F)(F)F)c(Cl)cc23)C(C)C1 ?
**Result** n

**Query** What do we get for CCc1c2c(nc3ccc(O)cc13)-c1cc3c(c(=O)n1C2)COC(=O)[C@]3(O)CC + C=CC(=O)N1CCN(c2nc(OCC3CCCN3C)nc3c(F)c(-c4nc(N)cc(C)c4C(F)(F)F)c(Cl)cc23)C(C)C1 ?
**Result** n

Below: the item to evaluate.
**Query** Assay outcome for CCc1c2c(nc3ccc(O)cc13)-c1cc3c(c(=O)n1C2)COC(=O)[C@]3(O)CC + C#Cc1c(F)ccc2cc(O)cc(-c3ncc4c(N5CC6CCC(C5)N6)nc(OCC56CCCN5CC(F)C6)nc4c3F)c12 : what was it?
**Result** y
